Source of measurements: patent US20240132578A1

Target: HIV-1 Env of isolate MGRM-G-017 (subtype G), on pseudovirus (HIV-1)
Experiment: cell-based or functional assay
Overview of reported IC50 (µg/mL), neutralization of pseudovirus across a group of binders:

Some binders with known IC50 (µg/mL), neutralization of pseudovirus results, for comparison:
binder | observed measurement
PGT-136 (antibody, V domains shown) VH: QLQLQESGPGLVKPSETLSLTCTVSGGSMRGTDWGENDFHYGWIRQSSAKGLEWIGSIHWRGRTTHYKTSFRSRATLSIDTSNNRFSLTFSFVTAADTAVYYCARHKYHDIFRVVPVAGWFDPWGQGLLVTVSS VL: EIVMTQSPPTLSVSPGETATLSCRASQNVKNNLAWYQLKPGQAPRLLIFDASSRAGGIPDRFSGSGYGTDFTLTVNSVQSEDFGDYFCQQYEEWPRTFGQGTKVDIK | > 50 µg/mL
PGT-130 (antibody, V domains shown) VH: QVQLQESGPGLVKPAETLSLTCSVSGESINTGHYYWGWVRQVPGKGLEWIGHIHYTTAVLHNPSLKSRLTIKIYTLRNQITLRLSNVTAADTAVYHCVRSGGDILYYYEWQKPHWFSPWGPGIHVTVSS VL: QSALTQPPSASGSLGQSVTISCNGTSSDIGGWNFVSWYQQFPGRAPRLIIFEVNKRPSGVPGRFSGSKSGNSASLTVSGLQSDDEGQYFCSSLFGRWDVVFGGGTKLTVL | > 50 µg/mL

Please turn your attention to the following entry.
[Q] I have this binder here, PGT-126 (antibody, V domains shown) VH: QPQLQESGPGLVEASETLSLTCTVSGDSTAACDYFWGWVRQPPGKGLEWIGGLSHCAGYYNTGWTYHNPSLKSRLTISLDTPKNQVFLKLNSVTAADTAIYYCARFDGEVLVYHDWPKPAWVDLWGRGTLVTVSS VL: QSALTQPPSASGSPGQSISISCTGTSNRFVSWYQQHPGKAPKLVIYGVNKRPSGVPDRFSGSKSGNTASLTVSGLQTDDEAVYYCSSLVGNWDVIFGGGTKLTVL , and I need its recorded IC50 (µg/mL), neutralization of pseudovirus.
[A] > 50 µg/mL
